Below are pIC50 values recorded for Squalene synthase (Rattus norvegicus, UniProt Q02769).
In plain terms, pIC50 is the concentration in mol/L turned into minus its base-10 logarithm.

The molecule listed as Br.COc1ccc2cc(-c3ccc(C4(O)CN5CCCCC5CO4)cc3)ccc2c1 (stereo not given) has a reported pIC50 of 4.74

Query Br.CN1CCOC(O)(c2ccc3ccccc3c2)C1 (stereo not given) yields pIC50 of 3.87

get_value(item= Br.COc1ccc2cc(C3(O)CN(C)CCO3)ccc2c1 (stereo not given) , readout=pIC50) returns 3.81

Noted for Br.CN1CC(O)(c2ccc3ccccc3c2)OC2CCCCC21 (stereo not given) : its pIC50 reads 4.82

get_value(item= Br.CN1CC(O)(c2ccc(-c3ccc4ccccc4c3)cc2)OC2CCCCC21 (stereo not given) , readout=pIC50) returns 6.10
